Tested on: VEGF-121 (Homo sapiens), P15692-9
Sequence: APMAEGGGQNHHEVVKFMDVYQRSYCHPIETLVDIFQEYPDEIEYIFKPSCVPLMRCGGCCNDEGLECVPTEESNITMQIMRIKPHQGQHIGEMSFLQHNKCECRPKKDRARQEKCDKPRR
Test: filter
Details: as 4867-31_192; PS 3' of 5; 3' inverted dT
Reported property: pKd
Remember, pKd is on a log scale: it is -log10 of the molar concentration.

Input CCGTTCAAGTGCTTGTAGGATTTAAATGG [4867-31_413] . Output pKd: 10.82

###

System: VEGF-121 (Homo sapiens), P15692-9
Sequence: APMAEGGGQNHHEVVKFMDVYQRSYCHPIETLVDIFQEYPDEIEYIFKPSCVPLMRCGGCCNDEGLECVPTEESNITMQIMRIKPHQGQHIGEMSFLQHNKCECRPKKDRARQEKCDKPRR
Assay: filter
Conditions: Nap-dU, Bn-dU, MBn-dU, 2'-OMe, C3; 1 Heg between parts
Reported property: pKd
Remember, pKd is on a log scale: it is -log10 of the molar concentration.

Input CCGTTCAAGTGCTTGTAGGATTTAAATGGTTACGTTACCGCGTTTATAGCG [4149-8_408] . Output pKd: 10.36

###

target: PDGF-BB (platelet-derived growth factor BB) (Homo sapiens) (UniProt P01127); experiment: filter; details: Bn-dU; Pe-dU17; 2'-F A9; Heg; 2'-OMe
Sequence (P01127 82-190): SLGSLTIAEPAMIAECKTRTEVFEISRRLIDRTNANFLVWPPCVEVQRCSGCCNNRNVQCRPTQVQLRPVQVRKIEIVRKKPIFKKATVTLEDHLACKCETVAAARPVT
Reported property: Kd

Input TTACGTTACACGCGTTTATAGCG [4149-8_348] . Output Kd: > 10 nM

###

Tested on: VEGF-121 (Homo sapiens), P15692-9
Sequence: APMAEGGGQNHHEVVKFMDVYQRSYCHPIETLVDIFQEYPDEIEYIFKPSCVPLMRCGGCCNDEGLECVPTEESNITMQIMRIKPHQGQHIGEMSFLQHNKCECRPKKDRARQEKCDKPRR
Test: filter
Conditions: VEGF-1Heg-PDGF; NapdU, 2'-OMe
Reported property: Kd (nM)
Just the number please, in nM, no unit attached.

Input CCGTTCAAGTGCTTGTAGGATTTAAATGGCGACAGCATGTATGCACATCT [5169-4_98] . Output Kd: 0.14

###

target: PDGF-BB (platelet-derived growth factor BB) (Homo sapiens); test: filter; settings: NapdU at P; 2'-OMe 19
Reported property: Kd

Fill in: PDGF-BB (platelet-derived growth factor BB) (Homo sapiens) Kd for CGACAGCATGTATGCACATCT [5169-4_52] = 0.31 nM

###

Test system: VEGF-121 (Homo sapiens), P15692-9
Sequence: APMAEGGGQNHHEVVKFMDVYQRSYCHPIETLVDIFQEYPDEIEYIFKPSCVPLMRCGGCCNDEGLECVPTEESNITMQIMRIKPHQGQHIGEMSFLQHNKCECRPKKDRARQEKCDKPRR
Assay: filter
Conditions: P=Nap-dU; C3 spacer at 9
Reported property: pKd
Remember, pKd is on a log scale: it is -log10 of the molar concentration.

Input CCCTCCATAGCCGTTCAAGTGCTTGTAGGATTTAAATGGAATTGGAGGA [4867-15_32] . Output pKd: 10.10

###

target: PDGF-BB (platelet-derived growth factor BB) (Homo sapiens) (UniProt P01127); test: filter; conditions: Bn-dU; C3 at 22
Reported property: Kd

Input TTACGACTACGTTACACGCGTTATAGCG [4149-8_85] . Output Kd: > 10 nM

###

Tested on: VEGF-121 (Homo sapiens), P15692-9
Sequence: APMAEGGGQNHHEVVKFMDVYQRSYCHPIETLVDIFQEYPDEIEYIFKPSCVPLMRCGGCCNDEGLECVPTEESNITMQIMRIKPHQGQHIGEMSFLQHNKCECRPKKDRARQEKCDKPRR
Experiment: filter
Details: P=Nap-dU; C3 spacer at 12
Reported property: pKd
Remember, pKd is on a log scale: it is -log10 of the molar concentration.

Fill in: VEGF-121 (Homo sapiens), P15692-9 pKd for CCCTCCATCAGCGTTCAAGTGCTTGTAGGATTTAAATGGAATTGGAGGA [4867-15_35] = 8.47

###

molecular target: PDGF-BB (platelet-derived growth factor BB) (Homo sapiens); test: filter; conditions: NapdU at P; 2'-OMe 2,4,17
Reported property: Kd (pM)
Just the number please, in pM, no unit attached.

Input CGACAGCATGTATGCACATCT [5169-4_118] . Output Kd: 560

###

biological target: PDGF-BB (platelet-derived growth factor BB) (Homo sapiens) (UniProt P01127); assay: filter; conditions: as 5169-4_146; PS 14; 3' inverted dT
Reported property: Kd (pM)
Just the number please, in pM, no unit attached.

Input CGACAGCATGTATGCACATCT [5169-4_179] . Output Kd: 7.7

###

Tested on: VEGF-121 (Homo sapiens), P15692-9
Sequence: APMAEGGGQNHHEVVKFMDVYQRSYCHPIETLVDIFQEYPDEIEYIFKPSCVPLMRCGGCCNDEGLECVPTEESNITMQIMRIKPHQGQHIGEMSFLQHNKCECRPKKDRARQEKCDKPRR
Assay: filter
Conditions: P=Nap-dU; 2'-OMe A27
Reported property: Kd (nM)
Just the number please, in nM, no unit attached.

Input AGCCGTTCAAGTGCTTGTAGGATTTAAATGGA [4867-31_91] . Output Kd: 0.35

###

Tested on: VEGF-121 (Homo sapiens), P15692-9
Sequence: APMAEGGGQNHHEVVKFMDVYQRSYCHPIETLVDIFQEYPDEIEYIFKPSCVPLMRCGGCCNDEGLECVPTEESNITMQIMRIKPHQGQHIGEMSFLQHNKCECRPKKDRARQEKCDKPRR
Test: filter
Details: C3 spacer at 26 as stated in text numbering is nearby G (single V in SEQ:614); all P are NapdU; C3 spacer at G26 tolerated
Reported property: pKd
Remember, pKd is on a log scale: it is -log10 of the molar concentration.

Fill in: VEGF-121 (Homo sapiens), P15692-9 pKd for CCCTCCATCAGCCGTTCAAGTGCTTTAGGATTTAAATGGAATTGGAGGA [4867-15-49] = 10.10

###

target: PDGF-BB (platelet-derived growth factor BB) (Homo sapiens) (UniProt P01127); assay: filter; conditions: BndU; NapdU 16; 2'-OMe 3,7,12,18,19,21,24; PS 8,9,15,16,17; Heg 5; C3 11
Reported property: Kd (nM)
Just the number please, in nM, no unit attached.

Input TTACGTTACCGCGTTTATAGCG [4149-8_456] . Output Kd: 0.027

###

target: PDGF-BB (platelet-derived growth factor BB) (Homo sapiens) (UniProt P01127); experiment: filter; settings: NapdU at P; 2'-OMe 6,18,20
Reported property: Kd (pM)
Just the number please, in pM, no unit attached.

Input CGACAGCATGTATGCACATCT [5169-4_105] . Output Kd: 6.1

###

target: PDGF-BB (platelet-derived growth factor BB) (Homo sapiens) (UniProt P01127); test: filter; details: Bn-dU; C3 at 18
Reported property: Kd

Input TTACGACTACGTTACACCGTTTATAGCG [4149-8_81] . Output Kd: > 10 nM

###

molecular target: PDGF-BB (platelet-derived growth factor BB) (Homo sapiens); experiment: filter; conditions: Bn-dU; 2'-OMe Bn-U17; Heg5; 2'-OMe A3, A11, A21, G24
Reported property: Kd

Input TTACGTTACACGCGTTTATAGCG [4149-8_310] . Output Kd: > 10 nM

###

Tested on: VEGF-165 (Homo sapiens), P15692-4
Sequence: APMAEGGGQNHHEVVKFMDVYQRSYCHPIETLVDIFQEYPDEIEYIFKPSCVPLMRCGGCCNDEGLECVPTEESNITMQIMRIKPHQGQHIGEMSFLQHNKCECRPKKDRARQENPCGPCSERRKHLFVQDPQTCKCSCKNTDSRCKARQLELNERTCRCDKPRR
Assay: filter
Conditions: P=Nap-dU; SB18T, 37 C
Reported property: Kd

Input CAATCAGCCGTTCAAGTGCTTGTAGGATTTAAATGGAAT [4867-31_26] . Output Kd: 75 pM

###

target: PDGF-BB (platelet-derived growth factor BB) (Homo sapiens); test: filter; settings: VEGF-3Heg-PDGF; NapdU, 2'-OMe
Reported property: pKd
Remember, pKd is on a log scale: it is -log10 of the molar concentration.

Input CCGTTCAAGTGCTTGTAGGATTTAAATGGCGACAGCATGTATGCACATCT [5169-4_96] . Output pKd: 11.35
